I'd be grateful if you could share measured log10 of IC50 for these entries.
- ASSAY_SYSTEM: P2X purinoceptor 7 (Homo sapiens)
- Sequence (Q99572 whole entry): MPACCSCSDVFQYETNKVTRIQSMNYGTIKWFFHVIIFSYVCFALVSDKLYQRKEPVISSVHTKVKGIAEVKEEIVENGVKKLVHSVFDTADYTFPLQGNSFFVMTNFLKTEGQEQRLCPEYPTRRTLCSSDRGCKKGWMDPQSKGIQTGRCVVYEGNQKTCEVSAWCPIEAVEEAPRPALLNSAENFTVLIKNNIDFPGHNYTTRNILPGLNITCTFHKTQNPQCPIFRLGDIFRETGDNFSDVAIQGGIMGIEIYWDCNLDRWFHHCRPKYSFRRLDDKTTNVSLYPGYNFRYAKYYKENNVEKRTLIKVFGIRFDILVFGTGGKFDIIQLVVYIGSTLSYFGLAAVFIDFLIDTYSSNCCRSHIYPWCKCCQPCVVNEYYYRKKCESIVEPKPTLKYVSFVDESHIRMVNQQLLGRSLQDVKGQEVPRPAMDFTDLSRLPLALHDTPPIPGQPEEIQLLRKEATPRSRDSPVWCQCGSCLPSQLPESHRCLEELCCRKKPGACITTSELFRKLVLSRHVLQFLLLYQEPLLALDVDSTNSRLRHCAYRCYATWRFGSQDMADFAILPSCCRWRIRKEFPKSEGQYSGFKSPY
- MEASUREMENT_NOTES: Antagonist activity at recombinant human P2X7 receptor expressed in HEK293 cells assessed as inhibition of BzATP-induced intracellular ethidium bromide uptake after 2 hrs by fluorescence assay
- Assay type: cell-based
Could you please treat all values as log10 of IC50 in nM?

Guide cases for log10 of IC50, answers given:
INSERT INTO measurements (compound, assay_system, endpoint_label, experimental_value) VALUES
  ('O=C1NC(=O)N(CCC2CCN(C(=O)c3ccccc3)CC2)C1Cc1ccc(OS(=O)(=O)c2cccc3cnccc23)cc1 (racemic)', 'P2X purinoceptor 7 (Homo sapiens)', 'log10 of IC50', 3.70),
  ('CN1C(=O)C(Cc2ccc(OS(=O)(=O)c3cccc4cnccc34)cc2)N(C2CCN(C(=O)c3ccc(Cl)c(C(F)(F)F)c3)CC2)C1=O (racemic)', 'P2X purinoceptor 7 (Homo sapiens)', 'log10 of IC50', 2.73),
  ('CC(C)(C)OC(=O)N1CCC(CN2C(=O)N(Cc3cccc4cnccc34)C(=O)C2Cc2ccc(OS(=O)(=O)c3cccc4cnccc34)cc2)CC1 (racemic)', 'P2X purinoceptor 7 (Homo sapiens)', 'log10 of IC50', 3.29),
  ('CC12CC3CC(C)(C1)CC(C(=O)N1CCC(N4C(=O)NC(=O)C4Cc4ccc(OS(=O)(=O)c5cccc6cnccc56)cc4)CC1)(C3)C2 (racemic)', 'P2X purinoceptor 7 (Homo sapiens)', 'log10 of IC50', 2.00);

Hey, quick one: what's log10 of IC50 for each of these?
1. CC(C)(C)OC(=O)N1CCC(CCN2C(=O)NC(=O)C2Cc2ccc(OS(=O)(=O)c3cccc4cnccc34)cc2)CC1 (racemic)
2. CCC(=O)N1CCC(N2C(=O)NC(=O)C2Cc2ccc(OS(=O)(=O)c3cccc4cnccc34)cc2)CC1 (racemic)
3. CCN1C(=O)C(Cc2ccc(OS(=O)(=O)c3cccc4cnccc34)cc2)N(C2CCN(C(=O)c3ccc(Cl)c(C(F)(F)F)c3)CC2)C1=O (racemic)

1. 3.00
2. 4.07
3. 2.93

Record log10 of IC50 for all entries; do not skip any.
1. O=C1NC(=O)N(C2CCN(C(=O)C34CC5CC(CC3C5)C4)CC2)C1Cc1ccc(OS(=O)(=O)c2cccc3cnccc23)cc1 (racemic)
2. O=C1NC(=O)N(C2CCN(C(=O)c3ccc(Cl)c(C(F)(F)F)c3)CC2)C1Cc1ccc(OS(=O)(=O)c2cccc3cnccc23)cc1 (racemic)
3. O=C1NC(=O)N(CC2CCN(Cc3ccccc3)CC2)C1Cc1ccc(OS(=O)(=O)c2cccc3cnccc23)cc1 (racemic)
4. O=C1NC(=O)N(CCC2CCN(Cc3ccccc3)CC2)C1Cc1ccc(OS(=O)(=O)c2cccc3cnccc23)cc1 (racemic)
5. CC(C)(C)C(=O)N1CCC(N2C(=O)NC(=O)C2Cc2ccc(OS(=O)(=O)c3cccc4cnccc34)cc2)CC1 (racemic)
6. CC(C)C(=O)N1CCC(N2C(=O)NC(=O)C2Cc2ccc(OS(=O)(=O)c3cccc4cnccc34)cc2)CC1 (racemic)
7. CC(C)(C)OC(=O)N1CCC(CN2C(=O)N[C@@H](Cc3ccc(OS(=O)(=O)c4cccc5cnccc45)cc3)C2=O)CC1

1: 1.84; 2: 1.85; 3: 3.26; 4: 3.76; 5: 3.75; 6: 3.86; 7: 3.89

====

- ASSAY_SYSTEM: P2X purinoceptor 7 (Homo sapiens)
- MEASUREMENT_NOTES: Antagonist activity at recombinant human P2X7 receptor expressed in HEK293 cells assessed as inhibition of BzATP-induced intracellular ethidium bromide uptake at 10 uM after 2 hrs by fluorescence assay
- Format: cell-based
Calls of active or inactive are those of the source. The rule behind the calls is not given here.
ENDPOINT_LABEL: inhibition

Consider the worked cases shown below.
INSERT INTO results (molecule, endpoint_label, experimental_value) VALUES
  ('O=C1NC(=O)N(C2CCNCC2)C1Cc1ccc(OS(=O)(=O)c2cccc3cnccc23)cc1 (racemic)', 'inhibition', 'inactive'),
  ('O=C1NC(=O)N(C2CCN(C(=O)C34CC5CC(CC(C5)C3)C4)CC2)C1c1ccc(OS(=O)(=O)c2cccc3cnccc23)cc1 (racemic)', 'inhibition', '48%'),
  ('O=C1NC(=O)[C@H](Cc2ccc(OS(=O)(=O)c3cccc4cnccc34)cc2)N1', 'inhibition', 'inactive'),
  ('O=C1NC(=O)N(C2CCN(C(=O)CC34CC5CC(CC(C5)C3)C4)CC2)C1c1ccc(OS(=O)(=O)c2cccc3cnccc23)cc1 (racemic)', 'inhibition', '46%'),
  ('O=C1NC(=O)N(CC2CCNCC2)C1Cc1ccc(OS(=O)(=O)c2cccc3cnccc23)cc1 (racemic)', 'inhibition', 'inactive');

From here, focus on the item given below.
Give its inhibition value. Item: O=C1NC(=O)N(C2CCN(C(=O)c3ccc(Cl)c(C(F)(F)F)c3)CC2)C1c1ccc(OS(=O)(=O)c2cccc3cnccc23)cc1 (racemic)
30%

====

- ASSAY_SYSTEM: P2X purinoceptor 7 (Homo sapiens)
- MEASUREMENT_NOTES: Antagonist activity at P2X7 receptor in LPS/IFN-gamma-differentiated human THP1 cells assessed as inhibition of BzATP-induced IL-1beta release at 1 uM preincubated for 30 mins followed by BzATP induction measured after 30 mins by ELISA relative to control
- Type: cell-based
- STUDY_CONDITIONS: THP-1
Kindly state inhibition for each of the entries shown.
Numbers only, in %.

Field: example entries. Status: answers known.
INSERT INTO assay_data (molecule, assay_system, experimental_value) VALUES
  ('CCCC(=O)N1CCC(N2C(=O)NC(=O)C2Cc2ccc(OS(=O)(=O)c3cccc4cnccc34)cc2)CC1 (racemic)', 'P2X purinoceptor 7 (Homo sapiens)', 37),
  ('O=C1NC(=O)N(C2CCN(C(=O)c3ccccc3)CC2)C1Cc1ccc(OS(=O)(=O)c2cccc3cnccc23)cc1 (racemic)', 'P2X purinoceptor 7 (Homo sapiens)', 60),
  ('CC(C)C(=O)N1CCC(N2C(=O)NC(=O)C2Cc2ccc(OS(=O)(=O)c3cccc4cnccc34)cc2)CC1 (racemic)', 'P2X purinoceptor 7 (Homo sapiens)', 33),
  ('O=C1NC(=O)N(CCC2CCN(C(=O)c3ccccc3)CC2)C1Cc1ccc(OS(=O)(=O)c2cccc3cnccc23)cc1 (racemic)', 'P2X purinoceptor 7 (Homo sapiens)', 33),
  ('O=C1NC(=O)N(C2CCN(C(=O)c3ccccc3Cl)CC2)C1Cc1ccc(OS(=O)(=O)c2cccc3cnccc23)cc1 (racemic)', 'P2X purinoceptor 7 (Homo sapiens)', 68),
  ('CC(C)(C)OC(=O)N1CCC(CN2C(=O)C(Cc3ccc(OS(=O)(=O)c4cccc5cnccc45)cc3)N(Cc3cccc4cnccc34)C2=O)CC1 (racemic)', 'P2X purinoceptor 7 (Homo sapiens)', 50),
  ('O=C1N[C@@H](Cc2ccc(OS(=O)(=O)c3cccc4cnccc34)cc2)C(=O)N1Cc1cccc2cnccc12', 'P2X purinoceptor 7 (Homo sapiens)', 52),
  ('COc1ccc(C(=O)N2CCC(N3C(=O)NC(=O)C3Cc3ccc(OS(=O)(=O)c4cccc5cnccc45)cc3)CC2)cc1OC (racemic)', 'P2X purinoceptor 7 (Homo sapiens)', 52);

Please report inhibition for every entry that follows.
1. CC(C)CC(=O)N1CCC(N2C(=O)NC(=O)C2Cc2ccc(OS(=O)(=O)c3cccc4cnccc34)cc2)CC1 (racemic)
2. O=C1NC(=O)N(CC2CCN(C(=O)c3ccccc3)CC2)C1Cc1ccc(OS(=O)(=O)c2cccc3cnccc23)cc1 (racemic)
3. CC(C)(C)C(=O)N1CCC(N2C(=O)NC(=O)C2Cc2ccc(OS(=O)(=O)c3cccc4cnccc34)cc2)CC1 (racemic)

1. 45
2. 59
3. 49

====

- MEASUREMENT_NOTES: Cmax in rat at 10 mg/kg, ip
- Assay type: ADME, organism-based
- Parameters: dose 10 mg/kg, route intraperitoneal
- STUDY_CONDITIONS: in vivo
ENDPOINT_LABEL: Cmax (ng/mL)
Give bare numbers, in ng/mL.

Given the entry O=C1NC(=O)N(C2CCN(C(=O)c3ccc(Cl)c(C(F)(F)F)c3)CC2)C1Cc1ccc(OS(=O)(=O)c2cccc3cnccc23)cc1 (racemic) , report its measured Cmax.
400

====

- MEASUREMENT_NOTES: AUClast in rat at 20 mg/kg, iv
- Format: ADME, organism-based
- Set-up: time 0 - last, dose 20 mg/kg, route intravenous
- STUDY_CONDITIONS: plasma
ENDPOINT_LABEL: AUC(0-t) (ng·h/mL)
One number for each entry, in ng·h/mL.

Given the entry O=C1NC(=O)N(C2CCN(C(=O)c3ccc(Cl)c(C(F)(F)F)c3)CC2)C1Cc1ccc(OS(=O)(=O)c2cccc3cnccc23)cc1 (racemic) , report its measured AUC(0-t).
3530

====

- ASSAY_SYSTEM: P2X purinoceptor 7 (Homo sapiens)
- MEASUREMENT_NOTES: Antagonist activity at P2X7 receptor in LPS/IFN-gamma-differentiated human THP1 cells assessed as inhibition of BzATP-induced IL-1beta release preincubated for 30 mins followed by BzATP induction measured after 30 mins by ELISA
- Type: cell-based, THP-1
For each of the compounds below, state its pIC50.
Answers are plain numbers, as −log10 of the molar value.

The following compounds each have a reported value; give each one's pIC50.
1. O=C1NC(=O)N(C2CCN(C(=O)c3ccc(Cl)c(C(F)(F)F)c3)CC2)C1Cc1ccc(OS(=O)(=O)c2cccc3cnccc23)cc1 (stereo in doubt; (+)-21w)
2. O=C1NC(=O)N(C2CCN(C(=O)C34CC5CC(CC(Br)(C5)C3)C4)CC2)C1Cc1ccc(OS(=O)(=O)c2cccc3cnccc23)cc1 (racemic)
3. O=C1NC(=O)N(C2CCN(C(=O)c3cccc(Cl)c3)CC2)C1Cc1ccc(OS(=O)(=O)c2cccc3cnccc23)cc1 (racemic)
4. O=C1NC(=O)N(C2CCN(C(=O)CC3CC4CCC3C4)CC2)C1Cc1ccc(OS(=O)(=O)c2cccc3cnccc23)cc1 (racemic)
5. O=C1NC(=O)N(C2CCN(C(=O)CC34CC5CC(CC(C5)C3)C4)CC2)C1Cc1ccc(OS(=O)(=O)c2cccc3cnccc23)cc1 (racemic)
6. O=C1NC(=O)N(C2CCN(C(=O)c3ccc(Cl)cc3)CC2)C1Cc1ccc(OS(=O)(=O)c2cccc3cnccc23)cc1 (racemic)

7.01
7.57
6.50
7.54
7.82
6.72

Parameters: items (list). Returns: pIC50 for each item.
1. CC12CC3CC(C)(C1)CC(C(=O)N1CCC(N4C(=O)NC(=O)C4Cc4ccc(OS(=O)(=O)c5cccc6cnccc56)cc4)CC1)(C3)C2 (racemic)
2. O=C1NC(=O)N(C2CCN(C(=O)c3ccc(Cl)cc3F)CC2)C1Cc1ccc(OS(=O)(=O)c2cccc3cnccc23)cc1 (racemic)
3. O=C1NC(=O)N(C2CCN(C(=O)C34CC5CC(CC3C5)C4)CC2)C1Cc1ccc(OS(=O)(=O)c2cccc3cnccc23)cc1 (racemic)

1: 7.09; 2: 6.60; 3: 7.31

Report pIC50 for each item below.
1. O=C1NC(=O)N(C2CCN(C(=O)c3ccc(Cl)c(C(F)(F)F)c3)CC2)C1Cc1ccc(OS(=O)(=O)c2cccc3cnccc23)cc1 (racemic)
2. O=C1NC(=O)N(C2CCN(C(=O)c3ccc(Cl)c(C(F)(F)F)c3)CC2)C1Cc1ccc(OS(=O)(=O)c2cccc3cnccc23)cc1 (single isomer, unassigned; (-))
3. O=C1NC(=O)N(C2CCN(C(=O)C3CCCCC3)CC2)C1Cc1ccc(OS(=O)(=O)c2cccc3cnccc23)cc1 (racemic)
4. O=C1NC(=O)N(C2CCN(C(=O)c3ccc(Cl)c(Cl)c3)CC2)C1Cc1ccc(OS(=O)(=O)c2cccc3cnccc23)cc1 (racemic)
5. CN([C@@H](Cc1ccc(OS(=O)(=O)c2cccc3cnccc23)cc1)C(=O)N1CCN(c2ccccc2)CC1)S(=O)(=O)c1cccc2cnccc12
6. O=C1NC(=O)N(C2CCN(C(=O)C34CC5CC(CC(C5)C3)C4)CC2)C1Cc1ccc(OS(=O)(=O)c2cccc3cnccc23)cc1 (racemic)

[7.30, 8.05, 7.10, 7.14, 6.84, 7.85]

Any idea what its pIC50 is? The compound is O=C1NC(=O)N(C2CCN(C(=O)c3ccc(F)c(F)c3)CC2)C1Cc1ccc(OS(=O)(=O)c2cccc3cnccc23)cc1 (racemic)
7.09
